- test-system: HLA B*1501 (Homo sapiens, UniProt P01889, A329T/A93T/A95T/C349S/D201E/D98Y/E187L/E204Q/E69M/E70A/K202T/N87E/Q94N/R155S/R180W/S121R/S35A/S48A/V306I/V36M/Y140S/Y91S)
- procedure-text: biochemical
Where a SMILES comes first, the peptide text is derived from it.
quantity: IC50 (nM)
Numbers only here, please. The scale is nM.

Consider the following illustrative entries.
CC(C)C[C@H](N)C(=O)NCC(=O)N[C@@H](Cc1ccccc1)C(=O)N[C@@H](CC(=O)O)C(=O)N[C@H](C(=O)N[C@H](C(=O)N[C@@H](C)C(=O)N[C@@H](Cc1ccc(O)cc1)C(=O)N[C@@H](Cc1ccccc1)C(=O)O)C(C)C)C(C)C [3102.0790] (H-LGFDVVAYF-OH) ... 67
CSCC[C@H](NC(=O)[C@@H](N)CC(C)C)C(=O)N[C@@H](CC(N)=O)C(=O)N[C@@H](CC(N)=O)C(=O)N[C@@H](CC(C)C)C(=O)N[C@@H](CC(=O)O)C(=O)N[C@H](C(=O)N[C@@H](CC(C)C)C(=O)N[C@@H](Cc1ccccc1)C(=O)O)[C@@H](C)O [3102.0836] (H-LMNNLDTLF-OH) ... 86
CC[C@H](C)[C@H](NC(=O)[C@@H](NC(=O)[C@@H](N)CC(C)C)[C@@H](C)CC)C(=O)N[C@H](C(=O)N[C@@H](CCCCN)C(=O)N[C@H](C(=O)N[C@@H](Cc1ccccc1)C(=O)N[C@@H](CO)C(=O)N[C@@H](Cc1ccccc1)C(=O)O)C(C)C)[C@@H](C)O [3102.1011] (H-LIITKVFSF-OH) ... 7.7

Q: Tell me the measured IC50 of NCCCC[C@H](NC(=O)[C@H](CCCCN)NC(=O)[C@H](CO)NC(=O)[C@@H](N)CCCCN)C(=O)N[C@@H](Cc1ccc(O)cc1)C(=O)N[C@@H](CCC(=O)O)C(=O)NCC(=O)N1CCC[C@H]1C(=O)N[C@@H](Cc1ccccc1)C(=O)O [3102.0833] (H-KSKKYEGPF-OH) , please.
A: 1.9

Q: Proceed to CSCC[C@H](NC(=O)[C@H](C)NC(=O)[C@H](CCCCN)NC(=O)[C@H](Cc1ccccc1)NC(=O)[C@@H](NC(=O)[C@@H](N)CC(N)=O)C(C)C)C(=O)N[C@@H](CCC(=O)O)C(=O)N[C@H](C(=O)N[C@@H](Cc1ccccc1)C(=O)O)[C@@H](C)O [3102.0887] (H-NVFKAMETF-OH)
A: 23

Q: Ok, now CC[C@H](C)[C@H](NC(=O)[C@H](CCC(N)=O)NC(=O)[C@@H](N)CO)C(=O)N[C@@H](CCC(=O)O)C(=O)N[C@H](C(=O)NCC(=O)N[C@H](C(=O)N1CCC[C@H]1C(=O)N[C@@H](Cc1ccccc1)C(=O)O)[C@@H](C)O)[C@@H](C)O [3102.1253] (H-SQIETGTPF-OH)
A: 0.61

Q: # iterate: CC[C@H](C)[C@H](NC(=O)[C@@H](NC(=O)[C@@H](NC(=O)[C@@H]1CCCN1C(=O)[C@H](CCCNC(=N)N)NC(=O)[C@H](Cc1ccccc1)NC(=O)[C@H](Cc1ccccc1)NC(=O)[C@@H](NC(=O)[C@@H](N)CCCCN)[C@@H](C)CC)[C@@H](C)O)[C@@H](C)O)C(=O)O [3102.0470] (H-KIFFRPTTI-OH)
A: 93

====

- test-system: HLA A*0201 (Homo sapiens, UniProt P04439, D140Y/D185E/D98H/E176V/E277Q/G131W/G231S/I119V/I121R/I166T/I218V/L300P/L318F/N151K/N90K/P208A/P217A/Q86G/Q94H/R138H/R169H/T345S)
- stated-conditions: positional scanning combinatorial 9-mer library; normalized to 1.0 for the best residue at each position
quantity: Normalized average relative binding affinity (ARB), HLA A*0201
Number only, no unit.

# count of solved cases: 5
WXXXXXXXX [3064.0019] ... 0.057
YXXXXXXXX [3064.0020] ... 0.11
XXFXXXXXX [3064.0045] ... 0.63
XGXXXXXXX [3064.0026] ... 0.0090
XXKXXXXXX [3064.0049] ... 0.016

Q: # input sequence: XLXXXXXXX [3064.0030] ; wanted: its Normalized average relative binding affinity (ARB), HLA A*0201
A: 1.0

Q: How about XXXAXXXXX [3064.0061] ?
A: 0.90

Q: Can you check XXTXXXXXX [3064.0057] next?
A: 0.14

Q: For DXXXXXXXX [3064.0003] then?
A: 0.0078

====

- test-system: H-2 D^b (Mus musculus)
- Assay type: binding
quantity: Normalized average relative binding affinity(ARB)
Form field (numeric): enter value without unit.

XXXXXXXAX [3064.0141] ... 0.50
XXXXXXDXX [3064.0123] ... 0.66
XXXXXDXXX [3064.0103] ... 0.29
XXXXXXTXX [3064.0137] ... 0.67
XXXKXXXXX [3064.0069] ... 0.43
XXXXXXQXX [3064.0134] ... 0.84
XXXXGXXXX [3064.0086] ... 0.064
XXXXXXVXX [3064.0138] ... 0.57

Next item in the queue.
Q: GET /values?readout=Normalized average relative binding affinity(ARB)&item= XXXXXXFXX [3064.0125]
A: 0.72

====

- test-system: H-2 K^k (Mus musculus, UniProt P04223)
- Type: binding
Below, each entry is listed alongside its reported Normalized average relative binding affinity (ARB), H-2 Kk.
Give the figure only, with no unit attached.

Some solved entries appear below for comparison.
EXXXXXXXX [3064.0004] ... 0.77
GXXXXXXXX [3064.0006] ... 0.14
XMXXXXXXX [3064.0031] ... 0.012
VXXXXXXXX [3064.0018] ... 0.13
QXXXXXXXX [3064.0014] ... 0.45
MXXXXXXXX [3064.0011] ... 0.78
IXXXXXXXX [3064.0008] ... 0.27
TXXXXXXXX [3064.0017] ... 0.65

Q: Consider the sequence XWXXXXXXX [3064.0039] and give its measured Normalized average relative binding affinity (ARB), H-2 Kk.
A: 0.0069

Q: Proceed to XFXXXXXXX [3064.0025]
A: 0.016

Q: Record: XXGXXXXXX [3064.0046]
A: 0.19

Q: And XXPXXXXXX [3064.0053] ?
A: 0.035

Q: Moving on to XTXXXXXXX [3064.0037]
A: 0.0085

Q: Also XIXXXXXXX [3064.0028] , if possible.
A: 0.0026

Q: Another: XXXDXXXXX [3064.0063]
A: 0.46

====

# maps each entry to its IC50
- test-system: HLA B*1501 (Homo sapiens, UniProt P01889, A329T/A93T/A95T/C349S/D201E/D98Y/E187L/E204Q/E69M/E70A/K202T/N87E/Q94N/R155S/R180W/S121R/S35A/S48A/V306I/V36M/Y140S/Y91S)
- procedure-text: biochemical
Where a SMILES comes first, the peptide text is derived from it.
State just the number; it will be interpreted in nM.

Example compounds with recorded IC50:
CSCC[C@H](N)C(=O)N[C@@H](CO)C(=O)N[C@@H](CO)C(=O)N[C@@H](CO)C(=O)N[C@@H](CCC(N)=O)C(=O)N[C@@H](CC(=O)O)C(=O)N[C@@H](CC(C)C)C(=O)N[C@@H](CO)C(=O)N[C@@H](Cc1ccccc1)C(=O)O [3102.1286] (H-MSSSQDLSF-OH) ... 16
CSCC[C@H](NC(=O)[C@H](CCCNC(=N)N)NC(=O)[C@H](CS)NC(=O)[C@@H]1CCCN1C(=O)[C@H](CO)NC(=O)[C@@H](N)CCSC)C(=O)N[C@@H](Cc1ccccc1)C(=O)N[C@@H](CO)C(=O)N[C@@H](Cc1ccccc1)C(=O)O [3102.0921] (H-MSPCRMFSF-OH) ... 17

Q: IC50 for CC[C@H](C)[C@H](NC(=O)[C@@H]1CCCN1C(=O)[C@H](CCC(=O)O)NC(=O)[C@H](CCC(=O)O)NC(=O)[C@H](CC(C)C)NC(=O)[C@H](Cc1ccc(O)cc1)NC(=O)[C@H](Cc1ccccc1)NC(=O)[C@H](CC(C)C)NC(=O)[C@@H](N)CCSC)C(=O)O [3102.0881] (H-MLFYLEEPI-OH) ?
A: 45

Q: Another compound to check: CC[C@H](C)[C@H](NC(=O)[C@H](CC(N)=O)NC(=O)[C@@H]1CCCN1C(=O)[C@H](CS)NC(=O)[C@@H](NC(=O)[C@@H](N)CCSC)C(C)C)C(=O)N[C@@H](CC(N)=O)C(=O)N[C@@H](C)C(=O)N[C@@H](Cc1ccccc1)C(=O)O [3102.0876] (H-MVCPNINAF-OH)
A: 22

Q: Subsequent entry: CSCC[C@H](N)C(=O)N[C@@H](Cc1ccc(O)cc1)C(=O)N[C@@H](CCCCN)C(=O)N[C@@H](CCCCN)C(=O)N[C@@H](C)C(=O)N[C@@H](CCC(=O)O)C(=O)N[C@@H](C)C(=O)N[C@@H](CO)C(=O)N[C@@H](Cc1ccccc1)C(=O)O [3102.0906] (H-MYKKAEASF-OH)
A: 69

Q: Same read-out for CC[C@H](C)[C@H](NC(=O)[C@H](CCCNC(=N)N)NC(=O)[C@H](Cc1ccc(O)cc1)NC(=O)[C@H](CCC(N)=O)NC(=O)[C@@H](NC(=O)[C@@H](N)CC(C)C)C(C)C)C(=O)N[C@@H](CC(C)C)C(=O)N1CCC[C@H]1C(=O)N[C@@H](CCSC)C(=O)O [3102.0954] (H-LVQYRILPM-OH) ?
A: 63

Q: Please give the result for CC[C@H](C)[C@H](NC(=O)[C@@H](N)CC(C)C)C(=O)N[C@@H](CCCNC(=N)N)C(=O)N[C@@H](CC(N)=O)C(=O)N[C@@H](CCCCN)C(=O)N[C@@H](CCCNC(=N)N)C(=O)N[C@@H](CC(C)C)C(=O)N[C@@H](CO)C(=O)N[C@@H](CC(C)C)C(=O)O [3102.0638] (H-LIRNKRLSL-OH) too.
A: 455
